System: VA-ES-BJ tumor spheroid viability
Assay: Anticancer human tumor VA-ES-BJ cell line growth inhibition;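 further: spheroids exposed to compounds for seven days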
Settings: second compound 10 µM; first compound 3.16 µM; hits give low values; spheroids with HUVEC and MSC
Label T when viability, T/C is strictly below 90%; otherwise label F.

Answered cases to consult:
Cc1cc(C)c(CNC(=O)c2cc(-c3ccc(CN4CCOCC4)cc3)cc3c2cnn3C2CCCC2)c(=O)[nH]1 + Cn1nnc2c(C(N)=O)ncn2c1=O :: F
COc1ccc([C@@H](O)c2cc(-c3ncnc4cc(N5CCOCC5)ccc34)c(F)cc2Cl)nn1 + Cn1nnc2c(C(N)=O)ncn2c1=O :: T
CC(C)n1c(=O)n(C)c2cnc3cc(F)c(-c4ccc(OCCCN5CCCCC5)nc4)cc3c21 + Cn1nnc2c(C(N)=O)ncn2c1=O :: F
[2H]c1nc(C)nc([2H])c1-c1cc(NC[C@@H](C)c2cccc3c(C(=O)NC)ccnc23)ncn1 + Cn1nnc2c(C(N)=O)ncn2c1=O :: F
CC1COCCN1c1cc(-c2ccnn2C)c2ccnc(-c3ccn[nH]3)c2n1 (stereo unspecified) + Cn1nnc2c(C(N)=O)ncn2c1=O :: T

Task: # TODO verify viability, T/C < 90% strictly for this compound: COc1cc(C)[nH]c(=O)c1CN1CCc2c(Cl)cc(C(OC)C3COC3)c(Cl)c2C1=O (stereo unspecified) + Cn1nnc2c(C(N)=O)ncn2c1=O
Output: T
